Source listed as ChEMBL document CHEMBL2069251.

Tested on: Candida tropicalis
Assay: Antifungal activity against Candida tropicalis Berkout KCCM 50662 after 1 day by twofold broth dilution method
Assay type: functional
Details: Berkout KCCM 50662, 24 h
Simple rule here: MIC less than 20 µg/mL is 1, otherwise -1.

Past entries and their recorded results:
{"molecule": "Nc1nc(=O)[nH]cc1F [FLUCYTOSINE]", "testedTarget": "Candida tropicalis", "className": 1}
{"molecule": "COC(=O)c1cc2c(s1)C(=O)c1c(C(=O)OC)c3ccccn3c1C2=O", "testedTarget": "Candida tropicalis", "className": -1}
{"molecule": "CCOC(=O)c1c2c(n3ccc(C#N)cc13)C(=O)c1cc(C(=O)OC)sc1C2=O", "testedTarget": "Candida tropicalis", "className": 1}
{"molecule": "COC(=O)c1cc2c(s1)C(=O)C(Cl)=C([n+]1cccc(Cl)c1)C2=O.[Cl-]", "testedTarget": "Candida tropicalis", "className": 1}
{"molecule": "CCOC(=O)c1c2c(n3ccc(OC)cc13)C(=O)c1cc(C(=O)OC)sc1C2=O", "testedTarget": "Candida tropicalis", "className": -1}

In: Take the molecule COC(=O)c1cc2c(OC)ccc(OC)c2s1 and say whether its MIC is less than 20 µg/mL.
Out: -1

In: Is MIC strictly under 20 µg/mL for the entry COC(=O)c1cc2c(s1)C(=O)C(Cl)=C([n+]1ccc(OC)cc1)C2=O.[Cl-] ?
Out: -1

In: Regarding COC(=O)c1cc2c(s1)C(=O)c1c(C(C)=O)c3cc(C#N)ccn3c1C2=O , kindly confirm whether its MIC is beneath 20 µg/mL.
Out: -1

In: In plain terms, does CCOC(=O)c1c2c(n3cc(Cl)ccc13)C(=O)c1cc(C(=O)OC)sc1C2=O come in under 20 µg/mL for MIC?
Out: 1

In: Strictly below 20 µg/mL in MIC? COC(=O)c1cc2c(s1)C(=O)C(Cl)=C([n+]1ccc(C#N)cc1)C2=O.[Cl-]
Out: -1
